Values were extracted from paper PMC4506051.

- experiment-notes: Exploratory trial: plasma concentration of rikkunshito ingredients after single oral rikkunshito 7.5 g
- Format: in vivo
- condition: 8 h after single oral rikkunshito 7.5 g; mean ± S.D., n = 4
measured-attribute: Plasma concentration, 8 h

{"columns": ["molecule", "val"],
 "data": [
  ["COc1ccc(-c2cc(=O)c3c(OC)c(OC)c(OC)c(OC)c3o2)cc1OC", "BQL"],
  ["COc1c(CC=C(C)C)c(O)cc2oc(=O)c(-c3ccc(O)cc3O)cc12", "BQL"],
  ["CNCC(O)c1ccc(O)cc1 (stereo not shown) [Synephrine]", "BQL"],
  ["C=C(CC[C@@H](C(=O)O)[C@H]1[C@H](O)C[C@@]2(C)C3=C(CC[C@]12C)[C@@]1(C)CC[C@H](OC(C)=O)C(C)(C)[C@@H]1CC3)C(C)C", "0.103 ± 0.129 ng/mL"]
]}

----------
- experiment-notes: Randomized crossover quantitative trial: plasma pharmacokinetics of nine ingredients after rikkunshito 2.5, 5.0 or 7.5 g
- condition: human, plasma, po, 2.5 g, Median t max (range), rikkunshito 2.5 g single oral, n = 21; median (minimum–maximum)
measured-attribute: Tmax (min)
Report the figure in min without appending any unit label.

{"columns": ["molecule", "val"],
 "data": [
  ["O=C(/C=C/c1ccc(O)cc1)c1ccc(O)cc1O", 15],
  ["O=C(O)/C=C/C#CC#C/C=C/c1ccco1", 15],
  ["O=C1C[C@@H](c2ccc(O)cc2)Oc2cc(O)cc(O)c21", 350],
  ["CC1(C)[C@@H](O)CC[C@]2(C)[C@H]3C(=O)C=C4[C@@H]5C[C@@](C)(C(=O)O)CC[C@]5(C)CC[C@@]4(C)[C@]3(C)CC[C@@H]12", 480]
]}

input: Given `COc1ccc(-c2oc3c(OC)c(OC)c(OC)c(OC)c3c(=O)c2OC)cc1OC` , state its recorded Tmax.
output: 30

----------
- experiment-notes: Exploratory trial: ingredients in β-glucuronidase (enzyme)-treated urine
- Type: in vivo, human
- condition: β-glucuronidase-treated; 0–4 h after rikkunshito 7.5 g; mean ± S.D., n = 4
Binary call on Amount in enzyme-treated urine, 0–4 h: Y from 3000 ng upward, N beneath that.

{"columns": ["compound", "assigned-category"],
 "data": [
  ["CCCCC/C=C/C(=O)CCc1ccc(O)c(OC)c1 [[6]-Shogaol, [6]-Shogaol]", "Y"],
  ["CCCCCCC/C=C/C(=O)CCc1ccc(O)c(OC)c1 [[8]-Shogaol, [8]-Shogaol]", "N"],
  ["COc1c(CC=C(C)C)c(O)cc2oc(=O)c(-c3ccc(O)cc3O)cc12", "Y"]
]}

Let's switch to this compound now.
input: Quick check: does CCCCCCC[C@H](O)CC(=O)CCc1ccc(O)c(OC)c1 [[8]-Gingerol, [8]-Gingerol] have Amount in enzyme-treated urine, 0–4 h greater than or equal to 3000 ng?
output: N

----------
Each record here notes measured Median t max (range).
- experiment-notes: Randomized crossover quantitative trial: plasma pharmacokinetics of nine ingredients after rikkunshito 2.5, 5.0 or 7.5 g
- condition: rikkunshito 7.5 g single oral, n = 19; median (minimum–maximum)

Known results for compounds:
{"columns": ["compound", "Median t max (range)"],
 "data": [
  ["CC1(C)[C@@H](O)CC[C@]2(C)[C@H]3C(=O)C=C4[C@@H]5C[C@@](C)(C(=O)O)CC[C@]5(C)CC[C@@]4(C)[C@]3(C)CC[C@@H]12 [18β-Glycyrrhetinic acid]", "8.00 (5.98–23.7) h"],
  ["O=C(/C=C/c1ccc(O)cc1)c1ccc(O)cc1O [Isoliquiritigenin]", "0.250 (0.250–4.00) h"]
]}

Consider the additional compound presented here.
input: # Median t max (range) lookup, item COc1ccc(-c2oc3c(OC)c(OC)c(OC)c(OC)c3c(=O)c2OC)cc1OC [Heptamethoxyflavone, 3,3′,4′,5,6,7,8-heptamethoxyflavone]
output: 1.00 (0.250–1.02) h

----------
- experiment-notes: clinical
- condition: human, in vivo, po, C max, rikkunshito 7.5 g single oral, n = 19; geometric mean (95% CI)
measured-attribute: Cmax (ng/mL)
Please state the figure in ng/mL; there is no need to write the unit.

input: Returns the measured Cmax for the input compound. Input: `C=C(CC[C@@H](C(=O)O)[C@H]1[C@H](O)C[C@@]2(C)C3=C(CC[C@]12C)[C@@]1(C)CC[C@H](OC(C)=O)C(C)(C)[C@@H]1CC3)C(C)C`
output: 0.091

----------
- experiment-notes: Randomized crossover quantitative trial: plasma pharmacokinetics of nine ingredients after rikkunshito 2.5, 5.0 or 7.5 g
- condition: human, in vivo, po, 5 g, t 1/2, rikkunshito 5.0 g single oral, n = 19; geometric mean (95% CI)
measured-attribute: half-life (min)
I only need the number, in min, no unit after it.

input: Would you kindly share the measured half-life for C/C=C/C#CC#C/C=C/c1ccco1 [Atractylodin] ?
output: 44.8

----------
- experiment-notes: Exploratory trial: plasma concentration of rikkunshito ingredients after single oral rikkunshito 7.5 g
- Format: in vivo
- condition: human, in vivo, po
concentration at 4 h values, listed per item
Express the result in ng/mL but write the number alone.

{"columns": ["compound", "unit-abbreviation", "concentration at 4 h"],
 "data": [
  ["CC(C)=CCC[C@](C)(O[C@@H]1O[C@H](CO[C@@H]2O[C@@H](CO)[C@H](O)[C@H]2O)[C@@H](O)[C@H](O)[C@H]1O)[C@H]1CC[C@]2(C)[C@@H]1[C@H](O)C[C@@H]1[C@@]3(C)CC[C@H](O[C@@H]4O[C@H](CO)[C@@H](O)[C@H](O)[C@H]4O[C@@H]4O[C@H](CO)[C@@H](O)[C@H](O)[C@H]4O)C(C)(C)[C@@H]3CC[C@]12C [Ginsenoside Rc]", "ng/mL", 0.0303],
  ["CC(C)=CCC[C@](C)(O[C@@H]1O[C@H](CO[C@@H]2O[C@H](CO)[C@@H](O)[C@H](O)[C@H]2O)[C@@H](O)[C@H](O)[C@H]1O)[C@H]1CC[C@]2(C)[C@@H]1[C@H](O)C[C@@H]1[C@@]3(C)CC[C@H](O[C@@H]4O[C@H](CO)[C@@H](O)[C@H](O)[C@H]4O[C@@H]4O[C@H](CO)[C@@H](O)[C@H](O)[C@H]4O)C(C)(C)[C@@H]3CC[C@]12C [Ginsenoside Rb1]", "ng/mL", 0.175],
  ["O=C1C[C@@H](c2ccc(O)cc2)Oc2cc(O)cc(O)c21 [Naringenin]", "ng/mL", 0.0715]
]}

input: I have this compound here, CC1(C)CC[C@]2(C(=O)O)CC[C@]3(C)C(=CC[C@@H]4[C@@]5(C)CC[C@H](O)C(C)(C)[C@@H]5CC[C@]43C)[C@@H]2C1 [Oleanolic acid] , and I need its recorded concentration at 4 h.
output: 0.903

----------
- experiment-notes: Exploratory trial: plasma concentration of rikkunshito ingredients after single oral rikkunshito 7.5 g
- Type: in vivo
- condition: human, plasma; 8 h after single oral rikkunshito 7.5 g; mean ± S.D., n = 4; read-out: Plasma concentration, 8 h
measured-attribute: concentration at 8 h (pg/mL)
Report as a plain number; the unit pg/mL is understood.

input: Look up concentration at 8 h: `COc1ccc(-c2oc3c(OC)c(OC)c(OC)c(OC)c3c(=O)c2OC)cc1OC`
output: 6.13

----------
- experiment-notes: Exploratory trial: amount of rikkunshito ingredients in urine
- Type: in vivo, human
- condition: preadministration (between dinner and bedtime); mean ± S.D., n = 4

{"columns": ["molecule", "Amount in urine, Pre"],
 "data": [
  ["CCCCCCC/C=C/C(=O)CCc1ccc(O)c(OC)c1 [[8]-Shogaol, [8]-Shogaol]", "BQL"],
  ["C[C@@H]1O[C@@H](OC[C@H]2O[C@@H](Oc3cc(O)c4c(c3)O[C@H](c3ccc(O)cc3)CC4=O)[C@H](O)[C@@H](O)[C@@H]2O)[C@H](O)[C@H](O)[C@H]1O", "9.26 ± 18.5 ng"],
  ["CC(C)=CCC[C@](C)(O)[C@H]1CC[C@]2(C)[C@@H]1[C@H](O)C[C@@H]1[C@@]3(C)CC[C@H](O)C(C)(C)[C@@H]3[C@@H](O[C@@H]3O[C@H](CO)[C@@H](O)[C@H](O)[C@H]3O[C@@H]3O[C@H](CO)[C@@H](O)[C@H](O)[C@H]3O)C[C@]12C [Ginsenoside Rf]", "BQL"],
  ["CC(C)=CCC[C@](C)(O[C@@H]1O[C@H](CO)[C@@H](O)[C@H](O)[C@H]1O)[C@H]1CC[C@]2(C)[C@@H]1[C@H](O)C[C@@H]1[C@@]3(C)CC[C@H](O)C(C)(C)[C@@H]3[C@@H](O[C@@H]3O[C@H](CO)[C@@H](O)[C@H](O)[C@H]3O[C@@H]3O[C@@H](C)[C@H](O)[C@@H](O)[C@H]3O)C[C@]12C [Ginsenoside Re]", "BQL"]
]}
